Hello, the source for this data is PubChem BioAssay (NCI), in case you need it.

system: ACHN renal; assay: NCI-60 one-dose screen, 48 h (100 = growth as untreated, 0 = no growth, -100 = all killed); conditions: 10 µM unless noted
About 83,000 compounds went through this panel and 20% of them were active in at least one assay; those are over-represented in the sample as a whole.
Label Yes when growth < 30%; otherwise No.

| COMPOUND | TARGET OF ASSAY | ANSWER LABEL |
| --- | --- | --- |
| CCCOC(=O)Nc1nc2ccc(SCC)cc2s1 | ACHN renal | No |
| CCOC(=O)NC(=S)n1oc(=O)c2ccccc21 | ACHN renal | No |
| C1CCC(N2CN3c4nonc4N4CN(C5CCCCC5)CN5c6nonc6N(C2)C3C45)CC1 (stereo unspecified) | ACHN renal | No |
| CCCCCCCCn1ccc2cc(NC(=O)CN=[N+]=[N-])ccc21 | ACHN renal | No |
| COC(=O)c1ccc2c(c1)c1c(C)c3cnccc3c(C)c1n2C | ACHN renal | Yes |
| O=C(CN1C(=O)S/C(=C\C(Cl)=C\c2ccccc2)C1=O)NC1CCS(=O)(=O)C1 (stereo unspecified) | ACHN renal | No |
| CN1CCN(Cc2ccc(NC(=O)c3cncc(C#Cc4cnc(N)cc4C#N)c3)cc2C(F)(F)F)CC1 | ACHN renal | Yes |
| COc1cc2c(cc1OCCCN1CCN(C(=S)SCCC(C#N)(c3ccccc3)c3ccccc3)CC1)N=C[C@@H]1CCCN1C2=O | ACHN renal | Yes |
| COc1ccc(/C=C(/C(=O)N2CCNCC2)c2cc(OC)c(OC)c(OC)c2)cc1O | ACHN renal | No |
| N#Cc1ccc(/C=C/c2cn(-c3ccccc3)nc2-c2cccc([N+](=O)[O-])c2)cc1 | ACHN renal | No |
| N#Cc1c(-c2ccccc2)nc2c(c(-c3ccccc3)nn2-c2ccccc2)c1-c1ccc(N2CCCCC2)cc1 | ACHN renal | No |
| O=c1ccc2ccc(OCCN3CCCCC3)cc2o1 | ACHN renal | No |
| COc1cc(Cc2cc(-c3ccccc3)nn(Cc3ccccc3)c2=O)cc(OC)c1OC | ACHN renal | Yes |
| O=[N+]([O-])c1ccccc1Nc1ccc2ccccc2c1 | ACHN renal | No |
| CS(=O)(=O)Nc1cc(-c2ccc3ncnc(Nc4ccc(F)c(Cl)c4)c3c2)ccc1Cl | ACHN renal | Yes |
| COc1cc([C@@H](CCO)C[C@H](C)c2ccc3ccccc3c2)cc(OC)c1OC | ACHN renal | No |
| CCN(CC)C(=O)CC1=C(C)/C(=C/c2[nH]c(-c3ccc[nH]3)cc2OC)N=C1C | ACHN renal | Yes |
| CN(C)C1CN(C(=O)c2cc(-c3ccc4ncnc(N5CCc6cc(F)c(Cl)cc65)c4c3)cnc2N)C1 | ACHN renal | Yes |
| CC(=O)c1sc(-c2ccc(F)cc2)cc1O | ACHN renal | No |
| CC[C@H](Nc1nc(N)nc(C)c1C#N)c1nc2cccc(CN(C)c3ncc(C(=O)NO)cn3)c2c(=O)n1-c1ccccc1 | ACHN renal | Yes |
| Cc1ccc(NC(=O)c2cc3ccccc3cc2O)c(C)c1 | ACHN renal | No |
